Molecular target: fusion glycoprotein (F) of the MPV used in the neutralization of Table 34 (metapneumovirus)
Test: cell-based or functional assay
experimental-readout: IC50 (ng/mL) in neutralization against MPV

binder	recorded-measurement
RSD5-FR-GL-rIgG1 (antibody, V domains shown) VH: QVQLVESGGGVVQPGRSLRLSCAASGFAFNNFAMHWVRQAPGKGLEWVAVVSYDGTSPYYADSVKGRFTISRDNSKNTLYLQMNSLRAEDTAVYYCARGLGSGSYSWIGYFYAMDVWGQGTTVTVSS VL: QSALTQPASVSGSPGQSITISCTGTSSDVGGYVYVSWYQQHPGKAPKLMIYDVSNRPSGVSNRFSGSKSGNTASLTISGLQAEDEADYYCISYTDRNTVVFGGGTKLTVL	> 2000 ng/mL

// next item, IC50 (ng/mL) in neutralization against MPV requested
I'd like to know its IC50 (ng/mL) in neutralization against MPV. The binder in question is MPK190-v1.1-rIgG1m17,1-LS (antibody, V domains shown) VH: QVQLVESGGGLVKPGGSLTLSCAASGFSISGYGMNWVRQAPGRGLEWVASISASSTYIYYADSMKGRFTISRDNGKTSLYLQMKSLRAEDTAVYYCARAPIEPPYFDLWGRGTLVTVSS VL: QSVLTQPPSVSGAPGQRVTISCTGSNSNIGAGYDVHWYQHLPGKAPKVLIYGNNNRPSVVPDRFSGSNSGASASLAISGLQAEDEADYFCQSYDRRLSGPIFGGGTKLTVL
0.705 ng/mL

// provenance: patent US20260028391A1
